Recorded values, source BigSolDB 2.1.

# recordedConditions: in chloroform, 305 K
propertyMeasured: solubility (mole fraction)
Please give the numeric answer without any surrounding text.

solubility (mole fraction) measured on CS(=O)(=O)c1ccc(F)cc1 = 0.352

---

# recordedConditions: in toluene, 298.86 K
propertyMeasured: solubility (mole fraction)
Response field accepts a number only; no unit should be typed.

Looking up CS(=O)(=O)c1ccc(F)cc1 , I see its solubility (mole fraction) listed as 0.0744

---

# recordedConditions: in ethyl acetate, 313.05 K
propertyMeasured: solubility (mole fraction)
Write the value as a bare number.

Consider CS(=O)(=O)c1ccc(F)cc1 . Its measured solubility (mole fraction) is 0.35

---

# recordedConditions: in toluene, 290.84 K
propertyMeasured: solubility (mole fraction)
Keep it simple and answer with nothing but the number.

get_value(item= CS(=O)(=O)c1ccc(F)cc1 , readout=solubility (mole fraction)) returns 0.0422
